- Tested on: E. coli K1 pilA+::tetR
- PROTOCOL: microbe, parasite or virus in culture
- Format: cell-based
- TEST_PARAMETERS: concentration of methyl α-D-mannopyranoside divided by the concentration of the compound
- Procedure: […] 10^8 cells mL. Protein concentrations were determined by BCA Protein […] determined by the observation of single cells only. […]
Everything with Relative Inhibitory Activity lower than 5 is Not fulfilled; everything else, including exactly 5, is Fulfilled.

molecule=CCC[C@H]1O[C@H](CO)[C@@H](O)[C@H](O)[C@@H]1O qualitative_label=Fulfilled
molecule=OCCC[C@H]1O[C@H](CO)[C@@H](O)[C@H](O)[C@@H]1O qualitative_label=Fulfilled
molecule=O=C(CCCC[C@@H]1SC[C@@H]2NC(=O)N[C@@H]21)NCCC[C@H]1O[C@H](CO)[C@@H](O)[C@H](O)[C@@H]1O qualitative_label=Fulfilled
molecule=O=C(O)CC[C@H]1O[C@H](CO)[C@@H](O)[C@H](O)[C@@H]1O qualitative_label="Not fulfilled"
molecule="O=[N+]([O-])c1ccc(O[C@H]2O[C@H](CO)[C@@H](O)[C@H](O)[C@@H]2O)cc1 [Compound 14, reference compound]" qualitative_label=Fulfilled
molecule="CO[C@H]1O[C@H](CO)[C@@H](O)[C@H](O)[C@@H]1O [Compound 13, methyl α-D-mannopyranoside, reference compound]" qualitative_label="Not fulfilled"
molecule=NCCC[C@H]1O[C@H](CO)[C@@H](O)[C@H](O)[C@@H]1O qualitative_label="Not fulfilled"

Values compiled from patent US5212075A.
